testedTarget: TRPM7 (transient receptor potential melastatin 7) (Mus musculus)
Construct: murine TRPM7 (GenBank AF376052) overexpressed in HEK293 (HEK-M7)
Sequence (Q923J1 whole entry): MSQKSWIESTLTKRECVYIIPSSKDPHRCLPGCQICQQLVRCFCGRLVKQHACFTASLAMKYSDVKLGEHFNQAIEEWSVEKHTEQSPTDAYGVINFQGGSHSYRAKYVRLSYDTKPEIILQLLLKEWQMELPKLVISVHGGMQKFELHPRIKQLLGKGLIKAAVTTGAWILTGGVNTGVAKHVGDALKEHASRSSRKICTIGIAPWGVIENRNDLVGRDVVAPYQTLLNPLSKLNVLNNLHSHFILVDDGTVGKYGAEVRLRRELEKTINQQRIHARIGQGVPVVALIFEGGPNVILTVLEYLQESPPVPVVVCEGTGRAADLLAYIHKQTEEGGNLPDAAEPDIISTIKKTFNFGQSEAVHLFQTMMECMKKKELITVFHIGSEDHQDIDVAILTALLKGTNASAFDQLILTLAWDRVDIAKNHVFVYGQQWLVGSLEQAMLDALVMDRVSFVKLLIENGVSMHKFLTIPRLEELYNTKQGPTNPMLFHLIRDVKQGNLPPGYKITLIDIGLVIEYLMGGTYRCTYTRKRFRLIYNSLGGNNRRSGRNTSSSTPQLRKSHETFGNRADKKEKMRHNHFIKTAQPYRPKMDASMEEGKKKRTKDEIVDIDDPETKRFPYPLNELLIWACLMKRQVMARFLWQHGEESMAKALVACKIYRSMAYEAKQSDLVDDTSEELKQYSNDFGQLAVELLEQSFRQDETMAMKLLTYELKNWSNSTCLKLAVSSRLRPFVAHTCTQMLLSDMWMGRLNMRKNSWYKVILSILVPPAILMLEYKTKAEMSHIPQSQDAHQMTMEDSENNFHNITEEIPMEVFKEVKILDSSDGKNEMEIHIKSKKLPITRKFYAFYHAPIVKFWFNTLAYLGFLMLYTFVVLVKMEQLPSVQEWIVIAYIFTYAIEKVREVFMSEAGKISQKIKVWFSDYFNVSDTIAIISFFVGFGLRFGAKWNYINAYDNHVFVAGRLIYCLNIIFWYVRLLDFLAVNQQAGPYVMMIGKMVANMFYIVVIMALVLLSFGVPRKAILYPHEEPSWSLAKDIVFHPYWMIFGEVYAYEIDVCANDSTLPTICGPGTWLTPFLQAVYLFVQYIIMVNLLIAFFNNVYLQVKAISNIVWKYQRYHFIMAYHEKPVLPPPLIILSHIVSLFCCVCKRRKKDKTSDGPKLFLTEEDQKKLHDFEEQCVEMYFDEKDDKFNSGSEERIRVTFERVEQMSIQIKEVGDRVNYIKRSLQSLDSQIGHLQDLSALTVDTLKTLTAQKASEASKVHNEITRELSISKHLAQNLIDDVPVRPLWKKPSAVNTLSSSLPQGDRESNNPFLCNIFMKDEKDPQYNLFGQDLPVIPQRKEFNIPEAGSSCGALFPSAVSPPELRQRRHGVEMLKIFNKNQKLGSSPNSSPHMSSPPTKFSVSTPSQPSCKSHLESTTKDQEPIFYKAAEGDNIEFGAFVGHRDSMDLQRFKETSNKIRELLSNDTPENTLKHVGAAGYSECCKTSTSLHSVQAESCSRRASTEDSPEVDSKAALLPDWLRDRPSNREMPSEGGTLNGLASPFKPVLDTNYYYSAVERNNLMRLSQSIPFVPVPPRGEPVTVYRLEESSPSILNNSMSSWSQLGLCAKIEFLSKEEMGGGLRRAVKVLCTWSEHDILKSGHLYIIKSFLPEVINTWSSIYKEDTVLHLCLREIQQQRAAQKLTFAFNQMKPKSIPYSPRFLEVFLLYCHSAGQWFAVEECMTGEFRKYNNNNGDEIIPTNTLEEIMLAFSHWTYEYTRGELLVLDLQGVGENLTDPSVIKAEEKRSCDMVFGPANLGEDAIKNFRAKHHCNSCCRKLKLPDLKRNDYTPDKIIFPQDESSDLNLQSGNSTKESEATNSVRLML
assayProcedure: whole-cell patch clamp at +[…] mV; Fura-2 Mn2+ quench gave IC50 […]
assayEndpoint: IC50 (µM)

[[record]]
compound = "NCCOB(c1ccccc1)c1ccccc1 [2-APB, 2-aminoethyl diphenylborinate]"
assayendpoint = "IC50"
reported = 120


Data origin: paper PMC7016641
